The origin of these recorded values is ChEMBL document CHEMBL1130253.

experiment: Elimination rate constant of the compound(15 mg/kg) administered intravenously in dog; assay type: ADME, organism-based, Canis lupus familiaris; conditions: in vivo, iv, read-out: T1/2 el (converted)
measure: half-life (min)

{"molecule": "CS(=O)(=O)O.Cc1c(O)cccc1C(=O)N[C@@H](CSc1ccccc1)[C@H](O)CN1C[C@H]2CCCC[C@H]2C[C@H]1C(=O)NC(C)(C)C [NELFINAVIR MESYLATE]", "numeric result": 70.8}

----------
assay: The area under curve (25 mg/kg) administered intravenously in rat; format: ADME, organism-based; details: in vivo, iv
measure: AUC

{"compound": "CS(=O)(=O)O.Cc1c(O)cccc1C(=O)N[C@@H](CSc1ccccc1)[C@H](O)CN1C[C@H]2CCCC[C@H]2C[C@H]1C(=O)NC(C)(C)C [NELFINAVIR MESYLATE]", "result": "7010 ng·h/mL"}

----------
assay: The maximum plasma concentration (200 mg/kg) administered orally in human; assay type: ADME, organism-based; design: route oral; conditions: po
measure: Cmax

{"compound": "CS(=O)(=O)O.Cc1c(O)cccc1C(=O)N[C@@H](CSc1ccccc1)[C@H](O)CN1C[C@H]2CCCC[C@H]2C[C@H]1C(=O)NC(C)(C)C [NELFINAVIR MESYLATE]", "result": "439 ng/mL"}

----------
assay: The area under curve (400 mg/kg) administered orally in humans; format: ADME, organism-based; conditions: human, in vivo, po

{"molecule": "CS(=O)(=O)O.Cc1c(O)cccc1C(=O)N[C@@H](CSc1ccccc1)[C@H](O)CN1C[C@H]2CCCC[C@H]2C[C@H]1C(=O)NC(C)(C)C [NELFINAVIR MESYLATE]", "AUC (ng·h/mL)": 7560}

----------
test system: Homo sapiens; test: The area under curve (800 mg/kg) administered orally in humans; assay type: ADME, organism-based; details: in vivo, po
measure: AUC (ng·h/mL)

{"molecule": "CS(=O)(=O)O.Cc1c(O)cccc1C(=O)N[C@@H](CSc1ccccc1)[C@H](O)CN1C[C@H]2CCCC[C@H]2C[C@H]1C(=O)NC(C)(C)C [NELFINAVIR MESYLATE]", "measure": "AUC", "numeric result": 22200}

----------
test: The maximum plasma concentration (25 mg/kg) administered orally in marmoset; assay type: ADME, organism-based; design: dose 25 mg/kg, route oral; conditions: callithrix, po
measure: Cmax (ng/mL)

{"molecule": "CS(=O)(=O)O.Cc1c(O)cccc1C(=O)N[C@@H](CSc1ccccc1)[C@H](O)CN1C[C@H]2CCCC[C@H]2C[C@H]1C(=O)NC(C)(C)C [NELFINAVIR MESYLATE]", "measure": "Cmax", "numeric result": 840}

----------
experiment: Elimination rate constant of the compound(100 mg) administered orally in human; conditions: in vivo, po, read-out: T1/2 el (converted)
measure: half-life (h)

{"compound": "CS(=O)(=O)O.Cc1c(O)cccc1C(=O)N[C@@H](CSc1ccccc1)[C@H](O)CN1C[C@H]2CCCC[C@H]2C[C@H]1C(=O)NC(C)(C)C [NELFINAVIR MESYLATE]", "value units": "h", "numeric result": 1.72}

----------
assay: Elimination rate constant of the compound(25 mg/kg) administered intravenously in rat; assay type: ADME, organism-based; details: in vivo, iv, read-out: T1/2 el (converted)

{"compound": "CS(=O)(=O)O.Cc1c(O)cccc1C(=O)N[C@@H](CSc1ccccc1)[C@H](O)CN1C[C@H]2CCCC[C@H]2C[C@H]1C(=O)NC(C)(C)C [NELFINAVIR MESYLATE]", "half-life, h": 1.26}
